Parameter: Trimeric HA Binding: RLU. Scope: all listed entries.
Target: recombinant soluble homotrimeric HA of A/Anhui/1/05 (H5N1) (Influenza A virus A/Anhui/1/2005(H5N1))
Experiment: HA microarray, BCC supernatant
Details: remark: other sources report otherwise

These recorded examples may help you get a feel for the data.
Report Trimeric HA Binding: RLU, nothing else, for this binder: TCN-546 (5089_L08) (antibody, V domains shown) VH: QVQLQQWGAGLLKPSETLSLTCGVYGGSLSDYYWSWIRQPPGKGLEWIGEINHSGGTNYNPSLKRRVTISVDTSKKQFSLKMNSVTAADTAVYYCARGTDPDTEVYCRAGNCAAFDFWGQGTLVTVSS VL: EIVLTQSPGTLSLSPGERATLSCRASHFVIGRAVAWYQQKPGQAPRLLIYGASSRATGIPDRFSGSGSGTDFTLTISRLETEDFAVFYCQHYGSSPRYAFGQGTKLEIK
2040 RLU

Report Trimeric HA Binding: RLU, nothing else, for this binder: TCN-557 (5081_A04) (antibody, V domains shown) VH: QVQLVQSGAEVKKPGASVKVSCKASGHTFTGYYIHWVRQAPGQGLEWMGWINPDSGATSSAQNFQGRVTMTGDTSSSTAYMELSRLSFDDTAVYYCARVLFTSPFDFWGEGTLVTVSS VL: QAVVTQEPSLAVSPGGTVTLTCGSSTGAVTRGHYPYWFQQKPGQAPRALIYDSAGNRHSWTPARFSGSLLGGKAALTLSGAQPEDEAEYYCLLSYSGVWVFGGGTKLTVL
46000 RLU

Next binder, please.
Report Trimeric HA Binding: RLU, nothing else, for this binder: TCN-550 (5096_F06) (antibody, V domains shown) VH: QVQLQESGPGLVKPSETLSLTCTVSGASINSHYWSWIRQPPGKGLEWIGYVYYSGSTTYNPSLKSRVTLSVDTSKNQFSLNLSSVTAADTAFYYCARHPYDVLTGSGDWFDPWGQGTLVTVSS VL: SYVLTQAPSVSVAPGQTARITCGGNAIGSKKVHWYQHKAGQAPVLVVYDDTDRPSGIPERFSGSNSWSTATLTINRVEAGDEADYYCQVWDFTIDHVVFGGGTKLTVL
1210 RLU
